- TESTED TARGET: B-RAF (Homo sapiens, UniProt P15056)
- Sequence (P15056 whole entry): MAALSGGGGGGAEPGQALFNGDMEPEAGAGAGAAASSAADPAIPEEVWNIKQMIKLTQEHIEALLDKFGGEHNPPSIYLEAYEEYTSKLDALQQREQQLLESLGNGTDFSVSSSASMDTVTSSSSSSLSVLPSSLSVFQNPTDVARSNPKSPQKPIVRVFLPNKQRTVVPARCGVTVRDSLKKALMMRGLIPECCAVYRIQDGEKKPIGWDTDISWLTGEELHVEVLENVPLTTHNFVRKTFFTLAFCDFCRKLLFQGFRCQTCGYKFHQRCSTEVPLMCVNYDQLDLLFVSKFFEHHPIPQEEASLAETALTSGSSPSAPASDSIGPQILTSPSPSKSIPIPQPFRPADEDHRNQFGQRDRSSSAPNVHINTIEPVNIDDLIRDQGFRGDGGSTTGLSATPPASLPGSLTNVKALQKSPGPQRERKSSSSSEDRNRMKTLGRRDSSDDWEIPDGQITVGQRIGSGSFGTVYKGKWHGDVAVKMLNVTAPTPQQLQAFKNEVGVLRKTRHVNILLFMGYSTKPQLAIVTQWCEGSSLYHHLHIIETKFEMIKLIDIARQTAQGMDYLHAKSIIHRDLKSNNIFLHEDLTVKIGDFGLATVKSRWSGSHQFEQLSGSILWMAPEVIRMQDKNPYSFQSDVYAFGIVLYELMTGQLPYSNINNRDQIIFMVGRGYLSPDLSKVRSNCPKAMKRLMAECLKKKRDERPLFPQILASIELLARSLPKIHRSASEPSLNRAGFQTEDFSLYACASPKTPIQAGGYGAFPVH
- TEST: Assay A - DELFIA kinase assay
- Type: biochemical
- ASSAY CONDITIONS: 100 μM ATP; mean of usually three assays; read-out: Assay A BRAF IC50
pIC50: −log10 of the molar value.
PROPERTY: pIC50

[[record]]
item_smiles = "Cn1c(=O)[nH]c2nccc(Oc3ccc(NC(=O)Nc4cc(C(C)(C)C)nn4-c4ccccc4)c(F)c3)c21"
tested_target = "B-RAF (Homo sapiens, UniProt P15056)"
measurement = 6.57

[[record]]
item_smiles = "Cn1c(=O)[nH]c2nccc(Oc3ccc(NC(=O)Nc4cc(C(C)(C)C)nn4-c4ccccc4)c4ccccc34)c21"
tested_target = "B-RAF (Homo sapiens, UniProt P15056)"
measurement = 6.60

[[record]]
item_smiles = "CC(C)(C)c1cc(NC(=O)Nc2ccc(Oc3ccnc4[nH]c(=O)[nH]c34)cc2)n(-c2ccc(F)cc2)n1"
tested_target = "B-RAF (Homo sapiens, UniProt P15056)"
measurement = 6.62

[[record]]
item_smiles = "Cc1ccc(-n2nc(C(C)(C)C)cc2NC(=O)Nc2ccc(Oc3ccnc4[nH]c(=O)n(C)c34)c3ccccc23)cc1"
tested_target = "B-RAF (Homo sapiens, UniProt P15056)"
measurement = 5.64

[[record]]
item_smiles = "CC(C)(C)c1cc(NC(=O)Nc2ccc(Oc3ccnc4[nH]c(=O)[nH]c34)cc2)n(-c2ccccc2)n1"
tested_target = "B-RAF (Homo sapiens, UniProt P15056)"
measurement = 7.03

[[record]]
item_smiles = "Cn1c(=O)[nH]c2nccc(Oc3ccc(NC(=O)Nc4cc(C(C)(C)C)nn4-c4ccc(Cl)cc4)c(F)c3)c21"
tested_target = "B-RAF (Homo sapiens, UniProt P15056)"
measurement = 6.52

[[record]]
item_smiles = "Cn1c(=O)n(C)c2c(Oc3ccc(NC(=O)Nc4cc(C(C)(C)C)nn4-c4ccccc4)c(F)c3)ccnc21"
tested_target = "B-RAF (Homo sapiens, UniProt P15056)"
measurement = 5.96

[[record]]
item_smiles = "Cc1ccc(-n2nc(C(C)(C)C)cc2NC(=O)Nc2ccc(Oc3ccnc4[nH]c(=O)n(C)c34)cc2)cc1"
tested_target = "B-RAF (Homo sapiens, UniProt P15056)"
measurement = 6.70

[[record]]
item_smiles = "Cc1ccc(-n2nc(C(C)(C)C)cc2NC(=O)Nc2ccc(Oc3ccnc4[nH]c(=O)n(C)c34)cc2F)cc1"
tested_target = "B-RAF (Homo sapiens, UniProt P15056)"
measurement = 6.71

